system: HeLa cells; assay: [3H] Adenosine uptake assay; type: cell-based; conditions: Homo sapiens, HeLa, accumulation of tritiated adenosine into HeLa cells; compound concentration range 10 μM to 0.032 nM; read-out: ADU inhibition IC50 (adenosine uptake inhibition potency)
Property Measured: pIC50
Please note pIC50 is a logarithmic value: minus log10 of concentration in mol/L. Answer with that number alone.

Structure	Assay System	pIC50
C[C@@]1(C(=O)O)CCN(c2nc(-c3ccc(C(=O)Nc4cc(C(F)(F)F)ccn4)cc3)c3c(N)nccn23)C1	HeLa cells	5.06
CCOc1cc(C(=O)Nc2cc(C(F)(F)F)ccn2)ccc1-c1nc(C23CCCC(C(=O)O)(CC2)CC3)n2ccnc(N)c12	HeLa cells	5.31
Nc1nccn2c(C34CCC(C(=O)O)(CC3)CC4)nc(-c3ccc(C(=O)Nc4cc(C5CC5)ccn4)cc3)c12	HeLa cells	6.56

Query :: What value of pIC50 has been recorded for this entry: Nc1nccn2c([C@@H]3CCC[C@H](C(=O)O)C3)nc(-c3ccc(C(=O)Nc4cc(C5CC5)ccn4)cc3F)c12
Result :: 5.36

###

System: HeLa cells
Assay: [3H] Adenosine uptake assay
Type: cell-based
Details: Homo sapiens, HeLa, accumulation of tritiated adenosine into HeLa cells; compound concentration range 10 μM to 0.032 nM; read-out: ADU inhibition IC50 (adenosine uptake inhibition potency)
Protocol: Compounds are also screen in an adenosine uptake functional cellular assay using the protocol described below: [^3H] Adenosine Uptake Assay Methods Adenosine uptake activity was determined by monitoring the accumulation of tritiated adenosine into HeLa cells (ATCC catalog #CCL-2) using a PMT-based radiometric detection instrument. […] The amount of radiolabel accumulation was then determined using a Perkin Elmer Topcount NXT microplate reader. […]
Reported IC50 by item:
Give the figure together with its unit, number first.

Query :: What value of IC50 has been recorded for this entry: COc1cc(C(=O)Nc2cc(C(F)(F)F)ccn2)ccc1-c1nc([C@H]2CN(C3CC(C(=O)O)C3)[C@@H](C)CO2)n2ccnc(N)c12 (stereo partly drawn) [Example 185]
Result :: 5.86 µM

Query :: What value of IC50 has been recorded for this entry: CC1(C)[C@H](C(=O)O)CC[C@@]1(C)c1nc(-c2ccc(C(=O)Nc3cc(C(F)(F)F)ccn3)cc2)c2c(N)nccn12 [Example 148]
Result :: 10 µM

Query :: What value of IC50 has been recorded for this entry: Nc1nccn2c(N3CC[C@H](C(=O)O)C3)nc(-c3ccc(C(=O)Nc4cc(C(F)(F)F)ccn4)cc3)c12 [Example 39]
Result :: 10 µM

Query :: What value of IC50 has been recorded for this entry: Nc1nccn2c([C@H]3CC[C@@H](C(=O)N4CCC[C@H]4C(=O)O)C3)nc(-c3ccc(C(=O)Nc4cc(C(F)(F)F)ccn4)cc3)c12 [Example 17]
Result :: 10 µM

Query :: What value of IC50 has been recorded for this entry: COc1cc(C(=O)Nc2cc(C(F)(F)F)ccn2)ccc1-c1nc([C@H]2CN(C3CCC(C)(C(=O)O)CC3)CCO2)n2ccnc(N)c12 (stereo partly drawn) [Example 180]
Result :: 6.42 µM

Query :: What value of IC50 has been recorded for this entry: Nc1nccn2c(-c3ccc(C(=O)O)cc3)nc(-c3ccc(C(=O)Nc4cc(C(F)(F)F)ccn4)cc3)c12 [Example 26]
Result :: 5.58 µM
